# System: MOLT-4 leukemia
# Method Summary: NCI tumour cell line growth inhibition, 48 h
Quantity Measured: TGI

molecule="CCOc1ccc2nc(NC(=O)C(=O)C3C(=O)C(CC4C(=O)c5ccccc5C4=O)C(=O)CC3(C)C)sc2c1 (stereo unspecified)" reported_measurement="90.4 µM"
molecule=CC(C)(Oc1ccc(-c2cccc3ccccc23)cc1)C(=O)O reported_measurement="> 100 µM"
molecule=CCCCCCCCCCCCCCCCCc1nc(Cl)nc(Cl)c1Cl reported_measurement="> 100 µM"
molecule=Cn1c(=O)c(-c2ccccc2Cl)cc2cnc(NC3CCOCC3)nc21 reported_measurement="> 25 µM"
molecule=Nc1ccc(CC[C@H]2CCC/C=C/[C@@H]3C[C@H](O)C[C@H]3[C@H](O)/C=C/C(=O)O2)cc1 reported_measurement="0.0847 µM"
molecule=CC(C)=CCC[C@@H](C)C1=C(O)C(N[C@H](C)c2ccccc2)=C(C)C(=O)C1=O reported_measurement="> 30.1 µM"
molecule=CCn1cc(C(=O)O)c(=O)c2cc(F)c(N3CCN(S(=O)(=O)c4ccc(Cl)cc4Cl)CC3)cc21 reported_measurement="> 100 µM"
molecule=COCN1C(=O)[C@@H]2CCCN2C(=O)c2ccc(N)cc21 reported_measurement="> 100 µM"
molecule=N#C[S-].[La+3].c1ccc(-c2ccccn2)nc1.c1ccc(-c2ccccn2)nc1.c1ccc(-c2ccccn2)nc1 reported_measurement="> 100 µM"
molecule=CC(=O)c1csc2c1C(=O)c1ccccc1C2=O reported_measurement="> 66.7 µM"

Form: molecule = `Nc1nc(SCc2ccccc2CCl)c2[nH]cnc2n1` ; TGI = > 100 µM

Looking up `O=[N+]([O-])c1ccccc1N=Nc1c(O)[nH]c2c(Cl)cccc12` , I found its TGI recorded as > 100 µM

The molecule identified as `Cc1c2cc[n+](Cc3ccc(I)cc3)cc2c(C)c2c1[nH]c1ccccc12` registered its TGI at 1.65 µM

get_value(item= `CSc1c(C(C)=O)c(O)n(-c2ccc(C)cc2)c(=O)c1C#N` , readout=TGI) returns > 100 µM

Item: CCOC(=O)C(C)c1nc2cc(F)c(F)cc2[nH]c1=O (stereo unspecified) | TGI: > 100 µM

* * *

# System: SR leukemia
# Method Summary: NCI tumour cell line growth inhibition, 48 h; in the data active means GI50 below about 0.43 µM; inactive means the rest
Write down the outcome that applies. Available outcomes: active, inactive

Record excerpt, results attached:
molecule=N#C[S-].[La+3].c1ccc(-c2ccccn2)nc1.c1ccc(-c2ccccn2)nc1.c1ccc(-c2ccccn2)nc1 class=inactive
molecule=O=C(/C=C/c1ccc(O)c(O)c1)N1CCN(c2ccc(Cl)cc2)CC1 class=inactive
molecule="COc1ccc(-c2nsc3c2NC(=O)CC3c2ccsc2)cc1 (stereo unspecified)" class=active
molecule=CNC(=O)CCN1CCN(CC/C=C2\c3ccccc3Sc3ccc(Cl)cc32)CC1 class=inactive
molecule=N[C@@H]1CCCN(c2c(Br)cnc3[nH]cc(NC(=O)C4CC4)c23)C1 class=active
molecule=CC(=O)c1cc2c(N)c(C(=O)Nc3cccc4ccccc34)sc2nc1C class=inactive
molecule=Cc1cc(N2CCC(N3CCCC3)CC2)nc(/N=C(\N)Nc2ccc(Cl)c(Cl)c2)n1 class=active
molecule="CC(C)=C[C@@H]1C[C@H](C)[C@H]2CC[C@H](C)c3c(O)c(OC4OC(C)C(O)C(O)C4O)c(C)c1c32 (stereo partly specified)" class=inactive
molecule=Nc1ccc(CC[C@H]2CCC/C=C/[C@@H]3C[C@H](O)C[C@H]3[C@H](O)/C=C/C(=O)O2)cc1 class=active
molecule=O=C1C(Cl)=C(Nc2ccc(S(=O)(=O)c3ccc(NC4=C(Cl)C(=O)c5ccccc5C4=O)cc3)cc2)C(=O)c2ccccc21 class=inactive

Okay, now this molecule:
Query: Given `[O]=[Sn]([CH]1CCCCC1)[CH]1CCCCC1` , state the outcome it received in this test.
Result: active
